Hey, just so you know, these numbers are from ChEMBL document CHEMBL2146473.

Test Method Notes: Cmax in monkey at 0.3 mg/kg, po
Format: ADME, organism-based, Macaca mulatta
Design: dose 0.3 mg/kg, route oral
Conditions: rhesus monkey, in vivo
Endpoint Name: Cmax (ng/mL)
API: value field is a number in ng/mL; no unit string.

Exercise: # lookup: Cmax of "Br.Cc1cc(N2CCN([C@@H]3CN[C@H](C(=O)N4CCSC4)C3)CC2)n(-c2ccccc2)n1"
Solution: 85.1

----------
Test Method Notes: Cmax in monkey at 0.1 mg/kg, po
Format: ADME, organism-based, Macaca mulatta
Design: dose 0.1 mg/kg, route oral
Conditions: rhesus monkey, in vivo
Endpoint Name: Cmax (ng/mL)
Field format: number, assumed ng/mL, no unit text.

Exercise: // query Cmax value for entry "Br.Cc1cc(N2CCN([C@@H]3CN[C@H](C(=O)N4CCSC4)C3)CC2)n(-c2ccccc2)n1"
Solution: 28.3

----------
Test Method Notes: Terminal half life in rat at 1 mg/kg, po
Type: ADME, organism-based
Design: dose 1 mg/kg, route oral
Conditions: in vivo, read-out: beta t1/2 (converted)
Endpoint Name: half-life (min)
Write it as a number; the unit min goes unstated.

Exercise: If you can, please state the reported half-life value of "Br.Cc1cc(N2CCN([C@@H]3CN[C@H](C(=O)N4CCSC4)C3)CC2)n(-c2ccccc2)n1" .
Solution: 506

----------
Test Method Notes: Terminal half life in rat at 0.3 mg/kg, po
Assay type: ADME, organism-based
Set-up: dose 0.3 mg/kg, route oral
Conditions: in vivo, read-out: beta t1/2 (converted)
Endpoint Name: half-life
Note: state the figure and append the unit.

Exercise: Would you kindly share the measured half-life for "Br.Cc1cc(N2CCN([C@@H]3CN[C@H](C(=O)N4CCSC4)C3)CC2)n(-c2ccccc2)n1" ?
Solution: 8.97 h

----------
Test Method Notes: Cmax in monkey at 1 mg/kg, po
Assay type: ADME, organism-based, Macaca mulatta
Design: dose 1 mg/kg, route oral
Conditions: rhesus monkey, in vivo
Endpoint Name: Cmax (ng/mL)
Unit ng/mL implied. Number only.

Exercise: Can you share its Cmax? I mean this compound: "Br.Cc1cc(N2CCN([C@@H]3CN[C@H](C(=O)N4CCSC4)C3)CC2)n(-c2ccccc2)n1"
Solution: 274

----------
Property: inhibition in vivo at 3 µmol/kg; scope: individual compounds
Species on record: Rattus norvegicus
Test Method Notes: animal or person
Assay type: functional
Conditions: Wistar, Plasma, po, 0.5 h
The reply should contain only the number, in %.

Cc1cc(N2CCN([C@@H]3CN[C@H](C(=O)N4CCSC4)C3)CC2)n(-c2ccccc2)n1 [TENELIGLIPTIN]    94.8
O=C([C@@H]1C[C@H](N2CCN(c3nnnn3-c3ccccc3)CC2)CN1)N1CCSC1    85.1
O=C([C@@H]1C[C@H](N2CCN(c3nccn3-c3ccccc3)CC2)CN1)N1CCSC1    59.3
O=C([C@@H]1C[C@H](N2CCN(c3ccnc4ccccc34)CC2)CN1)N1CCSC1    29.7
O=C([C@@H]1C[C@H](N2CCN(c3nnnn3C3CCCCC3)CC2)CN1)N1CCSC1    25.6
Cc1cc(N2CCN([C@@H]3CN[C@H](C(=O)N4CCSC4)C3)CC2)n(-c2ccccc2F)n1    75.9

Exercise: Item under review: "Cc1cc(N2CCN([C@@H]3CN[C@H](C(=O)N4CCSC4)C3)CC2)n(-c2cccnc2)n1" . Reported inhibition in vivo at 3 µmol/kg?
Solution: 66.9

Exercise: Which inhibition in vivo at 3 µmol/kg value belongs to "O=C([C@@H]1C[C@H](N2CCN(c3ccccn3)CC2)CN1)N1CCSC1" ?
Solution: 62.7

----------
Test Method Notes: Oral bioavailability in rat at 0.3 mg/kg
Assay type: ADME, organism-based
Conditions: in vivo
Endpoint Name: bioavailability (%)
# value in %; strip the unit string

Exercise: Which bioavailability reading was recorded for the compound "Br.Cc1cc(N2CCN([C@@H]3CN[C@H](C(=O)N4CCSC4)C3)CC2)n(-c2ccccc2)n1" ?
Solution: 63

----------
Form field: inhibition in vivo at 3 µmol/kg (one value per entry).
Organism: Rattus norvegicus
Test Method Notes: animal or person
Assay type: functional
Conditions: Wistar, Plasma, po, 0.5 h
// units = %; emit number, no label

O=C([C@@H]1C[C@H](N2CCN(c3ccnn3-c3ccccc3)CC2)CN1)N1CCSC1    90.6
O=C([C@@H]1C[C@H](N2CCN(c3cc(C(F)(F)F)nn3-c3ccccc3)CC2)CN1)N1CCSC1    87.4
Cc1cc(N2CCN([C@@H]3CN[C@H](C(=O)N4CCSC4)C3)CC2)n(-c2ccccn2)n1    83

Attention now shifts to the item below.
Exercise: Could you share which inhibition in vivo at 3 µmol/kg value was measured for "Cc1cc(N2CCN([C@@H]3CN[C@H](C(=O)N4CCSC4)C3)CC2)n(-c2cccc(F)c2)n1" ?
Solution: 96.1
